I'd appreciate it if you could supply GI50 values for the items below.
System: RPMI-8226
Protocol summary: NCI tumour cell line growth inhibition, 48 h
Calls of active or inactive are those of the source. No stated cut-off is given here; in the data, active = GI50 up to about 1.1 µM and inactive = higher.

Recorded GI50 for `CCNCCCCNCCCCNCCCCNCCCCNCC` , please?
53 µM (inactive)

Next compound: CN1CCC(SC2Cc3cc(Cl)ccc3Sc3ccccc32)CC1 (stereo not drawn)
7.29 µM (inactive)

Now the compound `O=C1C(=O)N(c2ccc(Cl)cc2)C(=O)C(=O)C1c1nc2ccccc2o1`
> 100 µM (inactive)

Another compound: `O=c1ccn(CC2(CO)CCCC2)c(=O)[nH]1`
> 100 µM (inactive)

Next compound up: `Nc1nc(NNc2ccc(Cl)c(Cl)c2)cc(=O)[nH]1`
32.2 µM (inactive)

Quick one: `CCOC(=O)c1cnc2oc3ccc(O)cc3c2c1C`
> 100 µM (inactive)

What do we get for `CNc1nc2c(C)ccc3nc(N(C)C)nc-3c2n1C` ?
> 10 µM (inactive)

Then this compound: `CC(=O)Nc1ncc(Sc2ccccc2C(=O)O)s1`
> 100 µM (inactive)

Field entry: O=C1CCC2(c3ccccc3)Nc3ncccc3N12 (stereo not drawn)
> 100 µM (inactive)

Also COc1cc(C2SCC(=O)N2c2ccc(-c3ccc(-n4c(-c5ccccc5)nc5ccccc5c4=O)cc3)cc2)ccc1O (stereo not drawn) , if possible.
> 100 µM (inactive)

Next record, please: CCOC(=O)N1c2c(c3ccccc3n2C(=O)OCC)C(=O)C(OC)N1C(=O)OCC (stereo not drawn)
23.9 µM (inactive)

Also, COC(=O)C(Cc1c[nH]c2ccccc12)NC(=O)C(Cc1c[nH]cn1)NC(=O)C1CCC(=O)N1C(=O)OCc1ccccc1 (stereo not drawn) please.
> 100 µM (inactive)

Could you do the same for CC1OC(OP(=O)(OCc2ccccc2)OCc2ccccc2)C(OC(=O)c2ccccc2)C(OC(=O)c2ccccc2)C1I (stereo not drawn) , please?
19.6 µM (inactive)

Cool, now N#Cc1cc([N+](=O)[O-])ccc1NC(=O)C(=O)C(C(=O)c1ccc2ccccc2c1)C1OCc2ccccc21 (stereo not drawn)
5.2 µM (inactive)

Entry `C=CCn1c(-c2ccc([N+](=O)[O-])cc2)cs/c1=N\C(P(=O)(O)O)P(=O)(O)O` please
> 100 µM (inactive)

Now this one: `CN1CCN(CCCCN2c3ccccc3Sc3cc(N=[N+]=[N-])ccc32)CC1`
2.31 µM (inactive)

Quick one: COc1cc([C@@H]2c3cc4c(cc3[C@@H](NCc3cccc(F)c3)C3COC(=O)[C@@H]32)OCO4)cc(OC)c1O (stereo partly drawn)
2.29 µM (inactive)

And for O=C(NC(Cc1ccccc1)P(=O)(O)c1ccccc1)OCc1ccccc1 (stereo not drawn) ?
> 100 µM (inactive)
